Test system: MT4
Assay: Cytotoxicity against human MT4 cells measured after 3 days by CytoTox-Glo assay
Type: cell-based
Details: mt4, 72 h
Observable: CC50

chemical_structure=C=C(C)[C@]12C[C@@H](COC(=O)c3ccccc3)[C@@]34OC5(O[C@@H]1[C@@H]3[C@@H]1O[C@]1(COC(C)=O)[C@@H](OC(C)=O)[C@@]1(O)[C@H]4[C@H]([C@H](C)[C@@H]1OC(=O)c1ccccc1)[C@H](C)CCCCCC[C@H]5OC(C)=O)O2 data_value="> 1 nM"
chemical_structure=C=C(C)[C@]12C[C@@H](COC(=O)c3ccccc3)[C@@]34OC5(O[C@@H]1[C@@H]3[C@@H]1O[C@]1(COC(C)=O)[C@@H](O)[C@@]1(O)[C@H]4[C@H]([C@H](C)[C@@H]1OC(=O)c1ccccc1)[C@H](C)CCCCCC[C@H]5O)O2 data_value="> 1 nM"

The measured values listed here are drawn from ChEMBL document CHEMBL4373700.
